What half-life at 1 μM was measured for each of the following?
# METHOD: in vitro
# RECORDED_CONDITIONS: male, Beagle, dog, s9, Half-life (min)
# Experimental: Reaction mixture, minus cofactors, was prepared as described below. Test article was added into the reaction mixture at a final concentration of 1 μM. […] Halflives were calculated using GraphPad software, fitting to a single-phase exponential decay equation. Reaction mixture, minus cofactors, was prepared as described below. […] Halflives were calculated using GraphPad software, fitting to a single-phase exponential decay equation. […]
Respond with the bare value in min.

Exam item: Any idea what half-life at 1 μM was measured for CC/C=C\C/C=C\C/C=C\C/C=C\C/C=C\CCCC(=O)OCCNC(=O)CCCCCCCCCCCCCCC ?
Marked response: 26

Exam item: So what does the record say about half-life at 1 μM for CCCCCCCCCCCCCCCC(=O)NCCOC(=O)CCC(=O)OC[C@H]1O[C@@](CO)(O[C@H]2O[C@H](CO)[C@@H](O)[C@H](O)[C@H]2O)[C@@H](O)[C@@H]1O ?
Marked response: 1.5

Exam item: half-life at 1 μM lookup needed for CCCCCCCCCCCCCCCC(=O)NCCOC(=O)CCC(=O)OCC(COC(=O)CCCCCCC)OC(=O)CCCCCCC (centres unmarked) [Compound I-3, PEA-Succinate-Glycerol-Di-Caprylic] , thanks.
Marked response: 19

Exam item: // lookup half-life at 1 μM for CCCCC/C=C\C/C=C\CCCCCCCC(=O)OCCNC(=O)CCCCCCCCCCCCCCC
Marked response: 34
